Consider the following compounds; for each one, report its ΔTm at 150 µM.
TGT: WT STING (truncated human WT STING protein) (Homo sapiens, UniProt Q86WV6, H232R)
Construct: truncated human WT STING or AQ STING (amino acid residues 140-343); 8xHis (N, cleaved yes); SUMO (N, cleaved yes); made in house; host or cells: E. coli Rosetta-gami B (DE3)
Sequence (Q86WV6 140-343 H232R): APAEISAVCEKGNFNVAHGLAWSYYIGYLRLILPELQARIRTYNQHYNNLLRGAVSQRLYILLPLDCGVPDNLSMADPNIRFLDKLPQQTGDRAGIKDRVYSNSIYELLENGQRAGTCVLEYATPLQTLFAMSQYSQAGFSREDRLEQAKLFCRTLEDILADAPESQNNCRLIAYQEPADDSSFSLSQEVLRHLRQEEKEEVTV
PROTOCOL_SUMMARY: Differential Scanning Fluorimetry with WT STING
Format: binding
DETAILS: thermal shift vs apoprotein; 150 μM CDN; 0.1 mg/ml STING protein; SYPRO Orange; read-out: DSF ΔTm (° C.) WT STING
Value expressed in °C; do not type the unit.

Data request, read-out ΔTm at 150 µM, for `Nc1nc2c(ncn2[C@@H]2O[C@@H]3COP(=O)(O)CO[C@H]4[C@@H](F)[C@H](n5cnc6c(N)ncnc65)O[C@@H]4COP(=O)(O)O[C@@H]2[C@@H]3O)c(=O)[nH]1` 20.9

Data request, read-out ΔTm at 150 µM, for `Nc1nc2c(ncn2[C@@H]2O[C@@H]3COP(=O)(O)CO[C@H]4[C@H](O)[C@H](n5cnc6c(N)ncnc65)O[C@@H]4COP(=O)(O)O[C@@H]2[C@@H]3O)c(=O)[nH]1` 15.8

Data request, read-out ΔTm at 150 µM, for `Nc1ncnc2c1ncn2[C@@H]1O[C@@H]2COP(=O)(O)O[C@@H]3[C@H](O)[C@@H](COP(=O)(O)CO[C@H]2[C@@H]1O)O[C@H]3n1cnc2c(N)ncnc21` 2.3

Data request, read-out ΔTm at 150 µM, for `Nc1nc2c(ncn2[C@@H]2O[C@@H]3COP(=O)(O)O[C@@H]4[C@H](O)[C@@H](COP(=O)(O)CO[C@H]3[C@H]2O)O[C@H]4n2cnc3c(N)ncnc32)c(=O)[nH]1` 1.4

Data request, read-out ΔTm at 150 µM, for `Nc1nc2c(ncn2[C@@H]2O[C@@H]3COP(=O)(O)CO[C@@H]4[C@H](O)[C@@H](COP(=O)(O)O[C@H]3[C@H]2F)O[C@H]4n2cnc3c(N)ncnc32)c(=O)[nH]1` 1.8

Attribution: patent US11149052B2
